# targetSystem: CDK4-NanoLuc fusion with CCND1 in 293T or 293 cells (Homo sapiens)
# Construct: host or cells: 293T (ATCC CRL-3216) or 293 (ATCC CRL-1573)
# Sequence (P11802 whole entry, the tested form may be a part): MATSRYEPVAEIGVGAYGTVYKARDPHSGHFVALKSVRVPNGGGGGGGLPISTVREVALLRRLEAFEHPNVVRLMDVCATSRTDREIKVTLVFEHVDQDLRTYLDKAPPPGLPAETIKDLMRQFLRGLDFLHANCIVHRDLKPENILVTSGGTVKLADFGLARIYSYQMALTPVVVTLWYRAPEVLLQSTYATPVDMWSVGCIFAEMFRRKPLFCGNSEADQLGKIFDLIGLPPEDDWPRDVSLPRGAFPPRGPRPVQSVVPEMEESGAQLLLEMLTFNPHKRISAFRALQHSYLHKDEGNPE
# Sequence (P24385 whole entry partner, the tested form may be a part): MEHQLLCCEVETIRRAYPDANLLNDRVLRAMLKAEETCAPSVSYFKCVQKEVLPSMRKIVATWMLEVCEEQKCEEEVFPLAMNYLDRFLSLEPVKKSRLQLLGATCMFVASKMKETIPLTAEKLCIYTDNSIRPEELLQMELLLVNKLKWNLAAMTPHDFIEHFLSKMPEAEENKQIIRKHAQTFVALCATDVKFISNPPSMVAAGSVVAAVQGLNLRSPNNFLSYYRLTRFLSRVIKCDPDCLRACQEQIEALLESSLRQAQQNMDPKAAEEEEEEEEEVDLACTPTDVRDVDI
# protocolText: NanoBRET Target Engagement (TE) Intracellular Kinase Assay, CDK4/CCND1
# Format: cell-based
# recordedConditions: NanoBRET TE intracellular kinase assay, 2-hour incubation, read-out: NanoBRET-CDK4/D1 IC50
outcomeMeasure: IC50 (µM)

A: CC(C)NC(=O)O[C@@H]1CC[C@H](c2cc(Nc3cc(Oc4cccc(O)c4C=O)ccn3)n[nH]2)C1 [Compound 13, trifluoroacetic acid]
B: CC(C)NC(=O)O[C@@H]1CC[C@H](c2cc(NC(=O)c3cc(C(=O)Nc4cccc(O)c4C=O)nn3C)n[nH]2)C1 [Compound 20, trifluoroacetic acid]
// which entry has the larger IC50 value, A or B ? Answer by stating the label of the chosen item.
A
(A: 4.7 µM, B: 1.21 µM)

----------
# targetSystem: CDK2-NanoLuc fusion with CCNE1 in 293T or 293 cells (Homo sapiens)
# Construct: host or cells: 293T (ATCC CRL-3216) or 293 (ATCC CRL-1573)
# protocolText: NanoBRET Target Engagement (TE) Intracellular Kinase Assay, CDK2/CCNE1
# Type: cell-based
# recordedConditions: NanoBRET TE intracellular kinase assay, 2-hour incubation, read-out: NanoBRET-CDK2/E1 IC50
outcomeMeasure: IC50 (nM)

Answered examples (5):
>>> measurement("CC(C)NC(=O)O[C@@H]1CC[C@H](c2cc(NC(=O)c3cc(-c4cc(F)cc(O)c4C=O)nn3C)n[nH]2)C1")
5.5
>>> measurement("COc1cc(O)c(C=O)c(OCC(=O)Nc2cc([C@@H]3CCC(OC(=O)N4CCCC4)C3)[nH]n2)c1 (some centres unmarked)")
3.05
>>> measurement("COc1cc(O)c(C=O)c(OCC(=O)Nc2cc([C@H]3CC[C@@H](OC(=O)N4CCCN4C)C3)[nH]n2)c1")
4.1
>>> measurement("CC(C)NC(=O)O[C@@H]1CC[C@H](c2cc(NC(=O)[C@H]3C[C@@H]3c3cccc(O)c3C=O)n[nH]2)C1 (single isomer, unassigned)")
6.04
>>> measurement("CC(C)NC(=O)O[C@@H]1CC[C@H](c2cc(NC(=O)c3cc(C(=O)Nc4ccccc4C=O)nn3C)n[nH]2)C1")
5.53

I: COc1cc(O)c(C=O)c(O[C@H](C)C(=O)Nc2cc([C@H]3CC[C@@H](OC(=O)NC4(C)CC4)C3)[nH]n2)c1
II: CC(C)(C)NC(=O)O[C@@H]1CC[C@H](c2cc(NC(=O)COc3cccc(O)c3C=O)n[nH]2)C1
III: COc1cc(O)c(C=O)c2c1CC(C(=O)Nc1cc([C@H]3CC[C@@H](OC(=O)N4CCCCN4C)C3)[nH]n1)C2 (single isomer, unassigned) [Compound 266]
IV: CC(C)NC(=O)O[C@@H]1CC[C@H](c2cc(Nc3cc(C#Cc4cccc(O)c4C=O)ccn3)n[nH]2)C1
Please list the entries, largest IC50 first. Answer by listing the labels in the order asked for.
IV, II, I, III
(IV: 21.4 nM, II: 5.93 nM, I: 3.69 nM, III: 1.99 nM)
